All values here come from patent US20230348426A1.

SYSTEM_UNDER_TEST: human FPR2 (Homo sapiens (Human))
Sequence (P25090 whole entry): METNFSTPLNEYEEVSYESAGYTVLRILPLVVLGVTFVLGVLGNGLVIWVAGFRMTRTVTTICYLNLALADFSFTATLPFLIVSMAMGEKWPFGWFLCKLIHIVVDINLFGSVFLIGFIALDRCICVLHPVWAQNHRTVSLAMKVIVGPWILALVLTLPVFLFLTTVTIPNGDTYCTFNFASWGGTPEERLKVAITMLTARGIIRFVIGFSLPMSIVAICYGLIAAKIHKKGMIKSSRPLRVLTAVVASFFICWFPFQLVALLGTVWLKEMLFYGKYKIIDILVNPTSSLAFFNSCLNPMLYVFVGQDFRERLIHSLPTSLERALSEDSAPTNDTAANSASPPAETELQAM
ASSAY_NAME: FPR2 cyclic adenosine monophosphate (cAMP) assay
CONDITIONS: CHO cells overexpressing human FPR2; forskolin 5 µM; inhibition of cAMP production; read-out: hFPR2 cAMP2 EC50
QUANTITY: EC50 (nM)
Give the value in nM but do not write nM after it.

Look at this compound and give its reported EC50. COc1ccc([C@@H]2CN(c3cccn(CC(O)C(F)(F)F)c3=O)C(=O)[C@H]2NC(=O)c2ccc(OC(F)F)cc2)cc1 (stereo partly shown) [Example 644] 2.1

Please look up its EC50: COc1cc(F)c([C@@H]2CN(c3c(C)ccn(C4CC4)c3=O)C(=O)[C@H]2NC(=O)c2ccc(OC(F)F)cc2)c(F)c1 8

Reported EC50, compound CCN1CCC(N2C[C@@H](c3c(F)cc(OC)cc3F)[C@H](NC(=O)c3ccc(OC(F)(F)F)cc3)C2=O)C1=O (stereo partly shown) : ____ 2.8

Which EC50 is listed for COCC(C(=O)N(C)C)n1cccc(N2C[C@@H](c3ccc(OC)cc3F)[C@H](NC(=O)c3ccc(OC(F)F)cc3)C2=O)c1=O (stereo partly shown) ? 9

Which EC50 is reported for this compound? COc1cc(F)c([C@@H]2CN(c3cc(F)cc(C(C)(C)O)c3)C(=O)[C@H]2NC(=O)c2ccc(Cl)cc2)c(F)c1 7.7

----------
SYSTEM_UNDER_TEST: human FPR1 (Homo sapiens (Human), UniProt P21462)
Sequence (P21462 whole entry): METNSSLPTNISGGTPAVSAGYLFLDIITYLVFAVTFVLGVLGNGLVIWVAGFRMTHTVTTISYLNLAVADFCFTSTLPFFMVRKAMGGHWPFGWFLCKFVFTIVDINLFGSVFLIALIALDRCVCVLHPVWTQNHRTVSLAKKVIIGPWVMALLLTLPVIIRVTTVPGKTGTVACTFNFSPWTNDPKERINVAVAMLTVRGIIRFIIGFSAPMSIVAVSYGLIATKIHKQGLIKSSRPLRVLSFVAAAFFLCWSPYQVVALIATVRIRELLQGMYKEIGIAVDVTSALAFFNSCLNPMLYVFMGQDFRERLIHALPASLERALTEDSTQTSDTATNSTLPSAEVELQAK
ASSAY_NAME: FPR1 cyclic adenosine monophosphate (cAMP) assay
CONDITIONS: CHO cells overexpressing human FPR1; forskolin 10 µM; inhibition of cAMP production; read-out: hFPR1 cAMP EC50
QUANTITY: pEC50
Schema: pEC50 number; meaning minus log10 of the concentration expressed in molar units.

Give recorded pEC50 with human FPR1 (Homo sapiens (Human), UniProt P21462) for the following molecule: COc1cc(F)c([C@@H]2CN(c3nc(N4CCN(C)CC4)ccc3OC)C(=O)[C@H]2NC(=O)c2ccc(OC(F)F)cc2)c(F)c1 6.41

API: value(readout= pEC50, system= human FPR1 (Homo sapiens (Human), UniProt P21462), query= COCCn1ccc(C)c(N2C[C@@H](c3ccc(OC)cc3F)[C@H](NC(=O)c3ccc(OC(F)(F)F)cc3)C2=O)c1=O ) 9.10

Look up pEC50 with human FPR1 (Homo sapiens (Human), UniProt P21462) for this molecule: COc1cc(F)c([C@@H]2CN(c3cc(NC(C)=O)cn(C)c3=O)C(=O)[C@H]2NC(=O)c2ccc(Cl)cc2)c(F)c1 5.72

Form entry - test system: human FPR1 (Homo sapiens (Human), UniProt P21462); read-out: pEC50; molecule: COc1ccc([C@@H]2CN(c3cccn(CC(C)OC)c3=O)C(=O)[C@H]2NC(=O)c2ccc(OC(F)F)cc2)c(F)c1 (stereo partly shown) 8.40

API: value(readout=pEC50, system=human FPR1 (Homo sapiens (Human), UniProt P21462)) for record O=C(N[C@@H]1C(=O)N(c2cccn(CC(O)C(F)(F)F)c2=O)C[C@H]1c1ccc(Cl)cc1)c1ccc(OC(F)(F)F)cc1 (stereo partly shown) [Example 609] 7.55

pEC50 of COCC(C(=O)N1CCCC1)n1cccc(N2C[C@@H](c3c(F)cc(OC)cc3F)[C@H](NC(=O)c3ccc(OC(F)F)cc3)C2=O)c1=O (stereo partly shown) on human FPR1 (Homo sapiens (Human), UniProt P21462)? 8.70

Which pEC50 is reported with human FPR1 (Homo sapiens (Human), UniProt P21462) for this entry: COc1cc(F)c([C@@H]2CN(c3c(C)ccn(C4CC4)c3=O)C(=O)[C@H]2NC(=O)c2ccc(OC(F)F)cc2)c(F)c1 ? 8.30

Form field - read-out: pEC50; system: human FPR1 (Homo sapiens (Human), UniProt P21462); submitted item: COc1ccc([C@@H]2CN(c3ccnn(CCC(F)(F)F)c3=O)C(=O)[C@H]2NC(=O)c2ccc(OC(F)F)cc2)cc1 [Example 672] 8.30

Hello, I am looking for reported pEC50 with human FPR1 (Homo sapiens (Human), UniProt P21462) for CCn1nccc(N2C[C@@H](c3ccc(OC)cc3)[C@H](NC(=O)c3ccc(OC(F)(F)F)cc3)C2=O)c1=O . Could you help? 8.30

I'm curious: which pEC50 was measured for COCC(CO)n1cccc(N2C[C@@H](c3ccc(OC)cc3)[C@H](NC(=O)c3ccc(OC(F)F)cc3)C2=O)c1=O (stereo partly shown) [Example 252] tested on human FPR1 (Homo sapiens (Human), UniProt P21462)? 7.36

Param readout = pEC50; param system = human FPR1 (Homo sapiens (Human), UniProt P21462); param query = COCCn1cc(F)cc(N2C[C@@H](c3c(F)cc(OC)cc3F)[C@H](NC(=O)c3ccc(OC(F)F)cc3)C2=O)c1=O ; response: value 6.85

Lab note: need pEC50 with human FPR1 (Homo sapiens (Human), UniProt P21462) for entry COc1cc(F)c([C@@H]2CN(c3cccc(C4CCN(C)CC4)n3)C(=O)[C@H]2NC(=O)c2ccc(OC(F)F)cc2)c(F)c1 [Example 536] , please look it up. 6.19

Please state recorded pEC50 (tested on human FPR1 (Homo sapiens (Human), UniProt P21462)) of COc1cc(F)c([C@@H]2CN(c3cccn(CC(C)O)c3=O)C(=O)[C@H]2NC(=O)c2ccc(OC(F)F)cc2)c(F)c1 (stereo partly shown) [Example 104] 6.92

What measured pEC50 is associated with COc1cc(F)c([C@@H]2CN(c3cccn(CC(O)C(F)(F)F)c3=O)C(=O)[C@H]2NC(=O)c2ccc(OC(F)(F)F)cc2)c(F)c1 (stereo partly shown) [Example 47] on human FPR1 (Homo sapiens (Human), UniProt P21462)? 6.82

pEC50 of COCCn1cccc(N2C[C@@H](c3ccc(OC)cc3F)[C@H](NC(=O)c3ccc(OC(F)(F)F)cc3)C2=O)c1=O [Example 56] on human FPR1 (Homo sapiens (Human), UniProt P21462)? 8.40

----------
SYSTEM_UNDER_TEST: UniProt P21462
ASSAY_NAME: FPR1 cyclic adenosine monophosphate (cAMP) assay
CONDITIONS: CHO cells overexpressing human FPR1; forskolin 10 µM; inhibition of cAMP production; read-out: hFPR1 cAMP EC50
pEC50: −log10 of the molar value.
Returns MET if the recorded pEC50 is greater than or equal to 7, and NOT MET otherwise.

Can COc1cc(F)c([C@@H]2CN(c3c(C(F)(F)F)ccn(C)c3=O)C(=O)[C@H]2NC(=O)c2ccc(Cl)cc2)c(F)c1 be said to have pEC50 at or above 7? NOT MET

Reported pEC50 reaches at least 7 for COc1cc(F)c([C@H]2[C@H](NC(=O)c3ccc(Cl)cc3)C(=O)N(c3cncn(CC(F)F)c3=O)[C@@H]2C)c(F)c1 ? NOT MET

Reported pEC50 reaches at least 7 for COCCN1CCC(N2C[C@@H](c3c(F)cc(OC)cc3F)[C@H](NC(=O)c3ccc(OC(F)(F)F)cc3)C2=O)C1=O (some centres unmarked) ? MET

Hi, just wondering whether COc1cc(F)c([C@@H]2CN(c3nc(N4CCC(O)C4=O)ccc3F)C(=O)[C@H]2NC(=O)c2ccc(OC(F)F)cc2)c(F)c1 (some centres unmarked) [Example 135] shows pEC50 of 7 or higher. MET

----------
Assignment: determine reported pEC50 for the given compounds.
SYSTEM_UNDER_TEST: human FPR1 (Homo sapiens (Human), UniProt P21462)
ASSAY_NAME: FPR1 cyclic adenosine monophosphate (cAMP) assay
CONDITIONS: CHO cells overexpressing human FPR1; forskolin 10 µM; inhibition of cAMP production; read-out: hFPR1 cAMP EC50
Give only the number. pEC50 is defined as minus log10 of concentration in molar units.

Give its pEC50 value. Item: COCCn1cc(F)cc(N2C[C@@H](c3c(F)cc(OC)cc3F)[C@H](NC(=O)c3ccc(OC(F)(F)F)cc3)C2=O)c1=O [Example 322] 7.01

Which pEC50 value is on record for COc1cc(N2C[C@@H](C)N(C)[C@@H](C)C2)nc(N2C[C@@H](c3c(F)cc(OC)cc3F)[C@H](NC(=O)c3ccc(OC(F)F)cc3)C2=O)c1 [Example 214] ? 5.62

So what's the measured pEC50 for this one? COc1cc(F)c([C@@H]2CN(c3c(C)ccn(CC(F)F)c3=O)C(=O)[C@H]2NC(=O)c2ccc(OC(F)(F)F)cc2)c(F)c1 [Example 86] 8.39

Name the reported pEC50 value associated with the compound COc1cc(F)c([C@@H]2CN(c3nc(N4CCN(C)CC4)ccc3C(F)F)C(=O)[C@H]2NC(=O)c2ccc(Cl)cc2)c(F)c1 [Example 333] 5.24

Would you kindly share the measured pEC50 for COc1cc(F)c([C@@H]2CN(c3c(C)ccn(CC4CCO4)c3=O)C(=O)[C@H]2NC(=O)c2ccc(Cl)cc2)c(F)c1 (some centres unmarked) [Example 618] ? 8.02

So what does the record say about pEC50 for COc1cc(F)c([C@@H]2CN(c3c(C)ccn(CC(OC)C(F)(F)F)c3=O)C(=O)[C@H]2NC(=O)c2ccc(OC(F)(F)F)cc2)c(F)c1 (some centres unmarked) [Example 297] ? 10.00

Entry under review: COc1cc(F)c([C@@H]2CN(c3nc(C4CCN(CC(F)F)CC4)ccc3F)C(=O)[C@H]2NC(=O)c2ccc(OC(F)F)cc2)c(F)c1 [Example 549] . Reported pEC50? 7.55

Given COc1cc(F)c([C@@H]2CN(c3nc(C(C)(C)O)ccc3F)C(=O)[C@H]2NC(=O)c2ccc(Cl)cc2)c(F)c1 [Example 313] , state its recorded pEC50. 5.27

What value of pEC50 has been reported for the following compound? COc1cc(N2C[C@@H]3C[C@H]2CN3C)nc(N2C(=O)[C@@H](NC(=O)c3ccc(OC(F)F)cc3)[C@H](c3c(F)cc(OC)cc3F)[C@@H]2C)c1 [Example 51] 5.26

Name the recorded pEC50 for COc1ccc([C@@H]2CN(c3cccn(CC(O)C(F)(F)F)c3=O)C(=O)[C@H]2NC(=O)c2ccc(OC(F)(F)F)cc2)cc1 (some centres unmarked) [Example 656] . 7.89

pEC50 for COCC(CO)n1nccc(N2C[C@@H](c3c(F)cc(OC)cc3F)[C@H](NC(=O)c3ccc(Cl)cc3)C2=O)c1=O (some centres unmarked) [Example 477] ? 7.89

Looking for the measured pEC50 of COc1cc(F)c([C@@H]2CN(c3c(C)ccn(C(F)(F)CO)c3=O)C(=O)[C@H]2NC(=O)c2ccc(OC(F)(F)F)cc2)c(F)c1 [Example 490] , can you help? 9.00

Would you mind telling me what pEC50 value was observed for COc1cc(F)c([C@@H]2CN(c3nc(C)ccc3F)C(=O)[C@H]2NC(=O)c2ccc(Cl)cc2)c(F)c1 [Example 111] ? 5.96

Consider the compound shown here: COc1cc(F)c([C@@H]2CN(c3nc(N4C[C@@H](C)N(C)[C@@H](C)C4)ccc3C3CC3)C(=O)[C@H]2NC(=O)c2ccc(OC(F)F)cc2)c(F)c1 [Example 348] What is its recorded pEC50? 5.85

Which pEC50 value belongs to CNC(=O)C(C)Nc1ccnc(N2C[C@@H](c3c(F)cc(OC)cc3F)[C@H](NC(=O)c3ccc(Cl)cc3)C2=O)c1C(F)(F)F (some centres unmarked) [Example 275] ? 5.21

Which pEC50 is reported for this compound? COCCOc1ncccc1N1C[C@@H](c2c(F)cc(OC)cc2F)[C@H](NC(=O)c2ccc(Cl)cc2)C1=O [Example 413] 6.92

Quick one: pEC50 of CCn1ccc(N2C[C@@H](c3c(F)cc(OC)cc3F)[C@H](NC(=O)c3ccc(Cl)cc3)C2=O)n1 [Example 647] ? 7.66
